These measurements were taken from patent US12258327B2.

# targetOrTestSystem: EGFR del19/T790M/C797S (Homo sapiens, UniProt P00533, C797S/DEL746-750/T790M)
# Sequence (P00533 with tags, fused parts or gaps DEL746-750/T790M/C797S): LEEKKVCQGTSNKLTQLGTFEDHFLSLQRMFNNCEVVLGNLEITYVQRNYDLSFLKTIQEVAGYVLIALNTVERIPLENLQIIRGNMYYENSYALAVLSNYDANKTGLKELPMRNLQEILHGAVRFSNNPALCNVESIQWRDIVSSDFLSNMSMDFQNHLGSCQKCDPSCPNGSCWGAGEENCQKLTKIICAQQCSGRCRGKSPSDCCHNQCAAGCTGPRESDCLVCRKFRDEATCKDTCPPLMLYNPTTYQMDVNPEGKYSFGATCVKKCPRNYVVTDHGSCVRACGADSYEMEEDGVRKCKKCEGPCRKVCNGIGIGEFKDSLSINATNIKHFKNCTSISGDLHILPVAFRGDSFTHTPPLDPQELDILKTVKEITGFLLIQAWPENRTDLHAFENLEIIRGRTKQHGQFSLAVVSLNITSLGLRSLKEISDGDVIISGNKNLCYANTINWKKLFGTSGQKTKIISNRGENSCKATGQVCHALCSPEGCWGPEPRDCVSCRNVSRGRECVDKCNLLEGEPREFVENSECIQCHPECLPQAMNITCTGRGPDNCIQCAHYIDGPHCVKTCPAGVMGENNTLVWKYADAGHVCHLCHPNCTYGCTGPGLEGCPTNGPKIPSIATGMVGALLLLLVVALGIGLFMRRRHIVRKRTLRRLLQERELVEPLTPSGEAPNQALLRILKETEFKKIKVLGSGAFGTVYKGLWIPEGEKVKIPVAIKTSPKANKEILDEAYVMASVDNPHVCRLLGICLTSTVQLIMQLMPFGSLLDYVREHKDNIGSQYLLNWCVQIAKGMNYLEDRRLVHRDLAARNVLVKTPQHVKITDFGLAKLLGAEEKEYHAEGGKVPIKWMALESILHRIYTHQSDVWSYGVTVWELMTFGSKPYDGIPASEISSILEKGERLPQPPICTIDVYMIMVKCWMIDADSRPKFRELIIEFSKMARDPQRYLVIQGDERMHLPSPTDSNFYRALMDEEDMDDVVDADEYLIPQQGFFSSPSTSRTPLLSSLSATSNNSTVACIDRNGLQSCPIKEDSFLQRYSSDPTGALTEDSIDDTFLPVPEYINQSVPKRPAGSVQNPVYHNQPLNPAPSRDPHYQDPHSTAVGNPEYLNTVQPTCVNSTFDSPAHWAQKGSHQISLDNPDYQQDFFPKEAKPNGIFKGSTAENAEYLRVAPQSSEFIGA
# assayOverview: Biochemical EGFR kinase assay (Lance Ultra TR-FRET), triple mutant del19/T790M/C797S
# studyConditions: Km ATP; read-out: IC50 del19/T790M/C797S, Km ATP
pIC50: −log10 of the molar value.
Please use 1.0 whenever pIC50 is not below 9, and 0.0 whenever it is.

Worked examples, 2 compounds total:
In [3]: df
Out[3]:
                                   compound  labelvalue
0  C[C@]1(O)CC[C@@H](Nc2cc(Nc3ccnc(N4CCC[C@@H](O)C4)n3)ncc2-c2ccn(C(F)F)n2)CC1         0.0
1  C[C@]1(O)CC[C@@H](Nc2cc(Nc3ccnc(-c4cnn(CC(F)F)c4)n3)ncc2-c2ccn(C(F)(F)F)n2)CC1         1.0

Data request: Is the recorded value of pIC50 equal to or greater than 9 for this compound? Cn1nc(-c2nnc(Nc3ccnc(-c4cnn(S(=O)(=O)C5CC5)c4)n3)cc2N[C@H]2CC[C@@](C)(O)CC2)cc1C(F)(F)F
Data returned: 1.0

Data request: Is the recorded value of pIC50 equal to or greater than 9 for this compound? CC1(O)CCC(Nc2cc(Nc3ccnc(N4CC(CO)C(C)(C)C4)n3)ncc2-c2ccn(C(F)F)n2)CC1 (centres unmarked)
Data returned: 0.0

Data request: Is the recorded value of pIC50 equal to or greater than 9 for this compound? CC1(O)CCC(Nc2cc(Nc3ccnc(N4CC(O)C(F)(F)C4)n3)ncc2-c2ccn(C(F)F)n2)CC1 (centres unmarked)
Data returned: 0.0
